Target: recombinant human OX40 fused to a His-tag (Acro Biosystems, cat. no. OX0-H5224) (human) (UniProt P43489)
Sequence (P43489 29-214 limits assumed): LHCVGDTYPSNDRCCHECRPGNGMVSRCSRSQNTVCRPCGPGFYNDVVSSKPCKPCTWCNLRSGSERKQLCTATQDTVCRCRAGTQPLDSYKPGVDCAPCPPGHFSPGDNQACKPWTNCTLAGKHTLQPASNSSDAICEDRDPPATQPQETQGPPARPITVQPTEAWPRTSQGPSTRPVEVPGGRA
Assay: BLI cross-block; first Ab (competitor): IgG1-CD134-GBR830
Here, each record is paired with measured association response data.
observationType: association response (nm)

>  <binder>
IgG1-CD134-RG7888 (antibody, INN chains, looked up, V domains shown, IgG1) VH: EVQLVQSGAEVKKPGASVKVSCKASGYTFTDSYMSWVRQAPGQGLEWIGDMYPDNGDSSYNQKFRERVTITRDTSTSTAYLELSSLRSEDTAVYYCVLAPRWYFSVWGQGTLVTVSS VL: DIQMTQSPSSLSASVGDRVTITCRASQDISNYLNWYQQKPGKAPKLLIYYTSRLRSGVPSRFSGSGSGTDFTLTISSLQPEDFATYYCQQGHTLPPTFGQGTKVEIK

>  <unitSpec>
nm

>  <assayValue>
0.26

$$$$
>  <binder>
IgG1-CD134-ABBV368 (antibody, INN chains, looked up, V domains shown, IgG1) VH: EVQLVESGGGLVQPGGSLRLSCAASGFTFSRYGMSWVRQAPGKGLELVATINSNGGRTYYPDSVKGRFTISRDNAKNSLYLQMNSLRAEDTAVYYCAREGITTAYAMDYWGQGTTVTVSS VL: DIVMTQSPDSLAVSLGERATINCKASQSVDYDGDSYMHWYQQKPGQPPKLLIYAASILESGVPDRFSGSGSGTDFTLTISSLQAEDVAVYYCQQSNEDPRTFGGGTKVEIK

>  <unitSpec>
nm

>  <assayValue>
0.01

$$$$
>  <binder>
IgG1-CD134-GBR830 (antibody, INN chains, looked up, V domains shown, IgG1) VH: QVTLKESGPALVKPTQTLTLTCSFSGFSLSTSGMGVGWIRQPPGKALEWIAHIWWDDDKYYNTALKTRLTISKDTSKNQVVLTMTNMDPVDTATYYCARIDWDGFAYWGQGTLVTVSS VL: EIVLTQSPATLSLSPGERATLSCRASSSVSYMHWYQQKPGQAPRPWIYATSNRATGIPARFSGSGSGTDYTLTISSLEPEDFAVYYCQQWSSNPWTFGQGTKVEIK

>  <unitSpec>
nm

>  <assayValue>
0.01

$$$$
>  <binder>
IgG1-CD134-Hu106 (antibody, from another filing, V domains shown) VH: QVQLVQSGSELKKPGASVKVSCKASGYTFTDYSMHWVRQAPGQGLKWMGWINTETGEPTYADDFKGRFVFSLDTSVSTAYLQISSLKAEDTAVYYCANPYYDYVSYYAMDYWGQGTTVTVSS VL: DIQMTQSPSSLSASVGDRVTITCKASQDVSTAVAWYQQKPGKAPKLLIYSASYLYTGVPSRFSGSGSGTDFTFTISSLQPEDIATYYCQQHYSTPRTFGQGTKLEIK

>  <unitSpec>
nm

>  <assayValue>
0.01

$$$$
